Data provenance: patent US20140356358A1

Target: T1, human neonatal Fc receptor (hFcRn) (human, UniProt P55899 24-290; P61769 21-119)
T1 construct: Biotinylated in the ELISA, Octet and yeast assays; also called human FcRn; huFcRn
T1 sequence (P55899 24-290 limits assumed, chain 1 of 2): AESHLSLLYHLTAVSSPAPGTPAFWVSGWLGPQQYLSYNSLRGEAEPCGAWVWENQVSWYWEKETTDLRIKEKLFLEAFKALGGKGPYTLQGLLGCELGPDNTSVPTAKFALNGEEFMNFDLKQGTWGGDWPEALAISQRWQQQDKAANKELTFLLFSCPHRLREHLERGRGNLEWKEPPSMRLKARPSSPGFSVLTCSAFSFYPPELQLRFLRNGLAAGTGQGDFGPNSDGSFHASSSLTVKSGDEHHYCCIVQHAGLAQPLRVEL
T1 sequence (P61769 21-119 limits assumed, chain 2 of 2): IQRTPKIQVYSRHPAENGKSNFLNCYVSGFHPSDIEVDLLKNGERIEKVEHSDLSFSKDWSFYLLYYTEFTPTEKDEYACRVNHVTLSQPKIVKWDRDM
Assay: phage ELISA pH 7.4;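 note: higher score means stronger binding and above about 3 to 5 exceeds background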
recorded_metric: ELISA score
Please reply with the value in numeric form only.

{"binder": "L5 isolate with insertion SEQ ID NO: 456 (other) EPKSCDKTHTCPPCPAPELLGGPSVFLFPPKPKDTLMISRTPEVTCVVVDVSHEDPEVKFNWYVDGVEVHNAKTKPREEQYNSTYRVVSVLTVLHQDWLNGKEYKCKVSNKALPAPIEKTISKAKGQPREPQVYTLPPSRDELTKNQVSLTCLVKGFYPSDIAVEWESNGGCYPQKEICGGGQPENNYKTTPPVLDSDGSFFLYSKLTVDKSRWQQGNVFSCSVMHEALHNHYTQKSLSLSPGK", "ELISA score": 0.6}

Would you kindly look at the next entry?
Reported ELISA score, binder L5 isolate with insertion SEQ ID NO: 450 (other) EPKSCDKTHTCPPCPAPELLGGPSVFLFPPKPKDTLMISRTPEVTCVVVDVSHEDPEVKFNWYVDGVEVHNAKTKPREEQYNSTYRVVSVLTVLHQDWLNGKEYKCKVSNKALPAPIEKTISKAKGQPREPQVYTLPPSRDELTKNQVSLTCLVKGFYPSDIAVEWESNGGCQTSMKNCGGGQPENNYKTTPPVLDSDGSFFLYSKLTVDKSRWQQGNVFSCSVMHEALHNHYTQKSLSLSPGK : ____
0.2
